Here the recorded IC50 is given for each entry.
- targetEntity: T1, human TNFα (human, UniProt P01375 77-233)
- T1 construct: Coated on plates, coupled to a CM5 chip, or added in solution (10 ng/ml) in the TNF receptor assay; the assay paragraphs often print only 'TNF'; also called TNF alpha; TAR1
- T1 sequence (P01375 77-233 limits assumed): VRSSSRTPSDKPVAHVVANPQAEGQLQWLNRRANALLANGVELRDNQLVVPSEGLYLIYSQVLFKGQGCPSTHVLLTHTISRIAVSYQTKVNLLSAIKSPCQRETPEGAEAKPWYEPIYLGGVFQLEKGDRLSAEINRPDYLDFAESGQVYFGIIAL
- methodSummary: TNF receptor assay: inhibition of TNF binding to TNFR1-Fc (ELISA)
quantity: IC50

{"binder": "TAR1-5d4 (other, dAb-linker-dAb dimer; also called TAR1-5 dimer 4) DIQMTQSPSSLSASVGDRVTITCRASQSIFMNLLWYQQKPGKAPKLLIYNASVLQSGVPSRFSGSGSGTDFTLTISSLQPEDFATYYCQQVVWRPFTFGQGTKVEIKRGGGGSGGGGSGGGGSGGGGSGGGGSDIQMTQSPSSLSASVGDRVTITCRASQSVKEFLWWYQQKPGKAPKLLIYMASNLQSGVPSRFSGSGSGTDFTLTISSLQPEDFATYYCQQKFKLPRTFGQGTKVEIKR", "quantity": "IC50", "assayResult": "~3 nM"}
{"binder": "TAR1-5d5 (other, dAb-linker-dAb dimer; also called TAR1-5 dimer 5) DIQMTQSPSSLSASVGDRVTITCRASQSIFMNLLWYQQKPGKAPKLLIYNASVLQSGVPSRFSGSGSGTDFTLTISSLQPEDFATYYCQQVVWRPFTFGQGTKVEIKRGGGGSGGGGSGGGGSGGGGSGGGGSDIQMTQSPSSLSASVGDRVTITCRASQSIYDALEWYQQKPGKAPKLLIYTASRLQSGVPSRFSGSGSGTDFTLTISSLQPEDFATYYCQQVMQRPVTFGQGTKVEIKR", "quantity": "IC50", "assayResult": "~200 nM"}
{"binder": "TAR1-5d1 (other, dAb-linker-dAb dimer; also called TAR1-5 dimer 1) DIQMTQSPSSLSASVGDRVTITCRASQSIFMNLLWYQQKPGKAPKLLIYNASVLQSGVPSRFSGSGSGTDFTLTISSLQPEDFATYYCQQVVWRPFTFGQGTKVEIKRGGGGSGGGGSGGGGSDIQMTQSPSSLSASVGDRVTITCRASQSIYDALEWYQQKPGKAPKLLIYTASRLQSGVPSRFSGSGSGTDFTLTISSLQPEDFATYYCQQVMQRPVTFGQGTKVEIKR", "quantity": "IC50", "assayResult": "~30 nM"}
